Target: T1, fluorescein-labelled wild-type MtbMpa (Mycobacterium tuberculosis, UniProt P9WQN5 1-609)
T1 sequence: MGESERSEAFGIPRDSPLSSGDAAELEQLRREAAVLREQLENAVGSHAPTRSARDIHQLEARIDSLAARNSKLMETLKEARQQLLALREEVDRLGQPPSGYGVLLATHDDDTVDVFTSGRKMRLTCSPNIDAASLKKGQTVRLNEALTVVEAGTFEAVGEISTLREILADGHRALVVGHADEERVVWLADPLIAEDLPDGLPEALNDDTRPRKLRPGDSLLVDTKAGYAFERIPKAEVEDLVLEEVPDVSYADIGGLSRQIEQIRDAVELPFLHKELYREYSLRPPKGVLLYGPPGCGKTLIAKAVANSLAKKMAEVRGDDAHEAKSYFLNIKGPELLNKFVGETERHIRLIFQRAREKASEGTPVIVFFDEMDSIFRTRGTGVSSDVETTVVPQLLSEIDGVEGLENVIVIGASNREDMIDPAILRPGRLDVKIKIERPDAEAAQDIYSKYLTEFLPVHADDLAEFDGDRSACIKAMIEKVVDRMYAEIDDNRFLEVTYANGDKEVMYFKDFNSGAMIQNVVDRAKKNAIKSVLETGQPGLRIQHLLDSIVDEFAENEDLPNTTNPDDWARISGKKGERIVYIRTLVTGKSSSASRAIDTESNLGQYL
Assay: MST
Settings: both partners purified
Readout Name: Kd

Challenge: Name the recorded Kd for MtbPupE (prokaryotic ubiquitin-like protein Pup with C-terminal glutamate), free (natural protein) MAQEQTKRGGGGGDDDDIAGSTAAGQERREKLTEETDDLLDEIDDVLEENAEDFVRAYVQKGGE .
Response given: 3.31 µM
